tested on: M14 melanoma; experiment: NCI-60 one-dose screen, 48 h (100 = growth as untreated, 0 = no growth, -100 = all killed); conditions: 10 µM unless noted
About 83,000 compounds went through this panel and 20% of them were active in at least one assay; those are over-represented in the sample as a whole.
Using growth as the sorting value, the categories are lowest: < 20%; middle: ≥ 20% and < 90%; highest: ≥ 90%

{"columns": ["compound", "label_value"],
 "data": [
  ["O=C(CI)Nc1ccc(O)c2ccccc12", "lowest"],
  ["Nc1c2c(nc3ccc(Cl)cc13)CC(c1ccc(O)cc1)CC2=O (stereo not given)", "middle"],
  ["Cc1ccc(S(=O)(=O)Nc2ccc(-c3cc(-c4cccc(F)c4)c(C#N)c(N)n3)cc2)cc1", "lowest"],
  ["COc1ccc(NC(=O)c2ccc3c(c2)nc(-c2cc4ccccc4[nH]c2=O)n3-c2cc(C(C)(C)C)[nH]n2)cc1", "highest"],
  ["N#CCCCCCn1c2ccccc2c2c3c(c4c5ccccc5n(CCCCCC#N)c4c21)C(=O)N(O)C3=O", "middle"],
  ["C=C1C(=O)O[C@H]2[C@H]1CC/C(COC(=O)NCc1cc3ccccc3[nH]1)=C\\CC[C@@]1(C)O[C@@H]21", "lowest"],
  ["CC(C)(C)c1ccc(OCCCCCCCN2CCNCC2)cc1", "middle"],
  ["COc1ccc(-c2c(-c3nc4ccc(N5CCOCC5)cc4[nH]3)[nH]c(C)c2C(C)=O)cc1", "middle"],
  ["C#CCn1c(C)cc(C)c(C#N)c1=O", "highest"],
  ["Cn1c(=O)c2c(ncn2CCC(=O)Nc2ccc(F)cc2)n(C)c1=O", "highest"]
]}

* * *

tested on: SN12C renal; assay: NCI-60 one-dose screen, 48 h; conditions: 10 µM unless noted
Compounds without any hit were thinned out: in the full panel of roughly 83,000, 20% have a hit. Activity calls are given as the source filed them. How the source made its calls: active means growth percent below 10; inactive means the rest.
Outcomes: active, inactive

{"columns": ["smiles_input", "label_value"],
 "data": [
  ["COC(=O)[C@]12CC[C@@H](C)[C@H](C)[C@@H]1C1=CC[C@@H]3[C@@](C)(CC#N)C4=C(C[C@@]3(C)[C@]1(C)CC2)OC[C@]4(C)C=O", "active"],
  ["COc1cc2nc(Cl)nc(Nc3cccc(C(=O)/C=C/c4ccccc4)c3)c2cc1OC", "inactive"],
  ["O=C1c2cccc3cccc(c23)C(=O)N1CC#Cc1ccc2c3c(cccc13)C(=O)N(CCO)C2=O", "inactive"],
  ["CCN(CC)C(=O)CCCCCn1c2ccccc2c2c3c(c4c5ccccc5[nH]c4c21)C(=O)N(O)C3=O", "inactive"]
]}

* * *

Items are presented alongside their recorded growth.
system: MOLT-4 leukemia; assay: NCI-60 one-dose screen, 48 h (100 = growth as untreated, 0 = no growth, -100 = all killed); details: 10 µM unless noted
About 83,000 compounds went through this panel and 20% of them were active in at least one assay; those are over-represented in the sample as a whole. Active and inactive are the calls of the source. The calls were made as follows: active = growth percent below 10; inactive = the rest.

{"columns": ["compound", "growth"],
 "data": [
  ["N#C/C(=C\\c1ccc(-c2ccc(Cl)cc2)o1)c1nc(-c2ccco2)cs1", "97.5% (inactive)"],
  ["C=C(C)[C@@H]1CC[C@]2(C(=O)O)CC[C@]3(C)[C@H](CC[C@@H]4[C@@]5(C)C/C(=C/c6cccc(I)c6)C(=O)C(C)(C)[C@@H]5CC[C@]43C)[C@@H]12", "13% (inactive)"],
  ["COc1cc2c(cc1-c1c(C)noc1C)ncc1nc(C3CCCCC3)n([C@@H](C)COC(F)F)c12", "39.5% (inactive)"],
  ["COc1cc2c3c(c4c5ccccc5[nH]c4c2c(OC)c1OC)C(=O)N(O)C3=O", "1.38% (active)"],
  ["C#Cc1cccc(NC(=O)C2CCCN(C(=O)CCl)C2)c1 (stereo not given)", "-7.04% [8.25 µM] (active)"]
]}

* * *

system: NCI-H226 lung; experiment: NCI-60 one-dose screen, 48 h (100 = growth as untreated, 0 = no growth, -100 = all killed); conditions: 10 µM unless noted
About 83,000 compounds went through this panel and 20% of them were active in at least one assay; those are over-represented in the sample as a whole.
Reported values of growth for individual entries
outcome_measure: growth (%)

{"columns": ["compound", "outcome_measure", "reported_result"],
 "data": [
  ["N#CC1=C(N)Oc2c(c(N)nn2-c2ccccc2)C1c1ccc(Cl)cc1 (stereo not given)", "growth", 87.2],
  ["O=S(=O)(NCCCNc1cc(-c2cn(-c3ccccc3)nc2-c2cccc(O)c2)ccn1)c1ccc(F)cc1", "growth", 54.1],
  ["C[C@]12CC[C@@H]3c4ccc(O)cc4CC[C@H]3[C@@H]1C[C@H](O)[C@@H]2O", "growth", 85],
  ["O=C(NO)c1ccc(Cn2c(=O)n(CCc3ccc(O)cc3)c(=O)c3ccccc32)cc1", "growth", 82.5],
  ["COc1ccc(-c2cc(/C=C/C(=O)c3ccc(N)cc3)[nH]n2)cc1", "growth", 24.5]
]}

* * *

tested on: 786-0 renal; experiment: NCI-60 one-dose screen, 48 h (100 = growth as untreated, 0 = no growth, -100 = all killed); settings: 10 µM unless noted
This is part of a sample that, as a whole, favours compounds with a hit. Of some 83,000 tested, about 20% had one in any assay.
# reported growth; entries follow
outcome_measure: growth (%)

{"columns": ["compound", "unit_symbol", "reported_result"],
 "data": [
  ["COc1ccc(C2c3ccccc3NC(=O)N2C2CCN(C)CC2)c(OC)c1 (centres undefined)", "%", 102],
  ["COc1ccc2nc(-c3c(-c4ccccc4)nc4ncccn34)[nH]c2c1", "%", 103],
  ["Cc1nc([P+](c2ccccc2)(c2ccccc2)c2ccccc2)c(Sc2sc(-c3ccccc3)nc2[P+](c2ccccc2)(c2ccccc2)c2ccccc2)o1", "%", 20.2],
  ["C=C(C)[C@@H]1CC[C@]2(C(=O)O)CC[C@]3(C)[C@H](CC[C@@H]4[C@@]5(C)C/C(=C/c6cccc(I)c6)C(=O)C(C)(C)[C@@H]5CC[C@]43C)[C@@H]12", "%", 25]
]}

* * *

test system: LOX IMVI melanoma; assay: NCI-60 one-dose screen, 48 h (100 = growth as untreated, 0 = no growth, -100 = all killed); settings: 10 µM unless noted
Compounds without any hit were thinned out: in the full panel of roughly 83,000, 20% have a hit.

{"columns": ["molecule", "growth, %"],
 "data": [
  ["O=C(CI)Nc1ccc(O)c2ccccc12", -60.6],
  ["Cc1cc(N2CCOCC2)nc(N(CCCNc2ccnc3cc(Cl)ccc23)Cc2ccco2)n1", 4.95],
  ["C[C@@H](C(=O)O)c1ccc2c3cc(Cl)ccc3n(Cc3cc(=O)oc4ccc(Cl)cc34)c2c1", 96.4],
  ["O=S(=O)(NCCNc1cc(-c2cn(-c3ccccc3)nc2-c2cccc(O)c2)ccn1)c1ccc(C(F)(F)F)cc1", 23.5],
  ["c1ccc2[nH]c(-c3ccc(Nc4nc(N5CCCCC5)nc(N5CCOCC5)n4)cc3)nc2c1", -77.1],
  ["[B-][N+](CC)(CC)c1ccccc1", 109],
  ["COc1ccc(NC(=S)N/N=C/c2ccccc2SSCCC(=O)OC[C@H]2O[C@H](O)[C@H](O)[C@@H](O)[C@@H]2O)cc1", 59.6],
  ["COc1ccc(-c2n[nH]nc2-c2cc3ccccc3s2)cc1O", 20.6],
  ["C/C(=N\\Nc1ccc2ccccc2n1)c1ccccn1", -19.8],
  ["CCOC(=O)C/C(=C\\c1ccccc1)C(C)=O", 108],
  ["C/C(=N/NC(N)=S)C(=O)O", 74.9],
  ["Cn1cc(-c2csc(-c3cn(CCNC(=O)OC(C)(C)C)c4ccc(F)cc34)n2)c2cccnc21", 71.9],
  ["COc1ccc(-c2cc(-c3cccs3)n(N=O)c(=O)c2C#N)cc1", 96.3],
  ["COc1ccc(-c2n/c(=C\\c3c(O)[nH]c4ccc(OC)cc34)cc3c2=Nc2ccccc2-3)cc1", 27.4],
  ["N#Cc1cnc2cc(OC[C@@H](O)CO)c(NC(=O)CC3CSSC3)cc2c1Nc1ccc(OCc2cccc(F)c2)c(Cl)c1", -84.2],
  ["COc1ccc(C2NC(=O)Nc3ccccc32)c(OC)c1 (stereo not drawn)", 103],
  ["COC(=O)[C@]12CC[C@@H](C)[C@H](C)[C@@H]1C1=CC[C@@H]3[C@@]4(C)C[C@@H](O)[C@H](O)[C@@](C)(CO)C4=CC[C@@]3(C)[C@]1(C)CC2", -100],
  ["CCc1ccccc1NC(=O)c1sc2nc3c(cc2c1N)CCCC3", 36.5],
  ["Nc1nc2c3ccncc3cc(-c3cccc(Cl)c3)c2c2cnccc12", -50.9],
  ["COc1cc(-c2cc3cc(O)ccc3oc2=O)cc(OC)c1OC", 103],
  ["C#Cc1cc2c(N)c(C(=O)c3cc(OC)c(OC)c(OC)c3)[nH]c2cc1OC", 46.1],
  ["COc1ccc(C2=NN(c3nc(-c4ccc(OC)cc4)c(C#N)c(=O)n3C)C(=O)CC2)cc1", 101],
  ["O=C(O[C@@H]1Cc2c(O)cc(O)cc2O[C@@H]1c1cc(O)c(O)c(O)c1)c1cc(O)c2c(c1)OCO2", 95.6],
  ["Clc1ccc2c(NCCNc3nc(-c4ccccc4)cc(-c4ccccc4)n3)ccnc2c1", -76.7],
  ["Cn1cc(-c2csc(-c3cn(CCNC(=O)OC(C)(C)C)c4ccccc34)n2)c2cccnc21", 82.4],
  ["Cc1cc(Cl)nc(N(CCCNc2ccnc3cc(Cl)ccc23)Cc2ccco2)n1", 10.7],
  ["CN(C)c1ccc(C(=O)c2ccc(N(C)C)c(N)c2)cc1N", 53.9],
  ["COc1cccc(-c2nn(-c3ccccc3)cc2-c2ccnc(NCCNS(=O)(=O)c3cccc(F)c3)c2)c1", 38.3],
  ["Cn1c(=O)c2c(nc(Br)n2CC(=O)Nc2ccc(F)cc2)n(C)c1=O", 96.7],
  ["O=C(Nc1ccc(/C=C2\\SC(=O)N(Cc3ccc(OC(F)(F)F)cc3)C2=O)cc1)c1ccc(Cl)c([N+](=O)[O-])c1", 73.1],
  ["COC(=O)[C@]12CC[C@@H](C)[C@H](C)[C@@H]1C1=CC[C@@H]3[C@@](C)(CC#N)C4=C(C[C@@]3(C)[C@]1(C)CC2)OC[C@]4(C)C=O", -99],
  ["CCCCC[C@H]1C/C=C2/C(=O)C(Cl)=C[C@@H]2C/C=C\\CCCC(=O)O[C@@H](CCCCC)C/C=C2/C(=O)C(Cl)=C[C@@H]2C/C=C\\CCCC(=O)O1", -74.7],
  ["COc1ccc(-c2cc(-c3c(C)oc4cc5occc5c(OC)c4c3=O)nc(N)c2C#N)cc1OC", 50.2],
  ["Oc1cc(/C=C/c2nc(N3CCOCC3)c3cc(Cl)c(Cl)cc3n2)cc(O)c1O", 106],
  ["O=C(N/N=C/c1ccccc1SSc1ccccc1/C=N/NC(=O)c1ccccc1)c1ccccc1", 11.1],
  ["Nc1nc(N)c2nc3c(nc2n1)CCCCCCCCCC3", 30.8],
  ["COc1cccc(-c2nn(-c3ccccc3)cc2-c2ccnc(NCCNS(=O)(=O)c3ccc(C(F)(F)F)cc3)c2)c1", 4.44],
  ["CC(C)(C)c1ccc(OCCCCCCCN2CCNCC2)cc1", -77.8]
]}
